Reported values of koff for individual entries
Target: T1, human CTGF (antigen of the Biacore assays) (human, UniProt P29279 27-349)
T1 construct: also called antigen human CTGF; human CTGF protein
T1 sequence (looked up): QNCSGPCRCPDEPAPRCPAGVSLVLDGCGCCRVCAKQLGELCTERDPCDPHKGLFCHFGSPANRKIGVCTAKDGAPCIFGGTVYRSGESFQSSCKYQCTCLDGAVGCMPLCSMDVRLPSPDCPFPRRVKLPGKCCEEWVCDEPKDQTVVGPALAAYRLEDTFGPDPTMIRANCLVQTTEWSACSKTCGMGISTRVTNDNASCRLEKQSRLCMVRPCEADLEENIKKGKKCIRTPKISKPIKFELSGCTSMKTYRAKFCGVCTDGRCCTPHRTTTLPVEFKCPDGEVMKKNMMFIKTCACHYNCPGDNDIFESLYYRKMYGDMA
Assay: Biacore, antibody captured on Protein A, CTGF in flow, 1:1 fit
Excerpt: A certain amount of each of the test antibodies was affinity-captured with Protein A biosensor chip (Cat. # 29127556, GE), and then a certain concentration of human or mouse CTGF was allowed to flow through the surface of the chip. The reaction signals were detected in real time with Biacore instrument to generate a binding and dissociation curve. […]
Write it as a number; the unit s⁻¹ goes unstated.

binder	koff [s⁻¹]
Hu164-77wl (antibody, human IgG1, lambda, V domains shown) VH: EVQLQESGPGLVKPSQTLSLTCTVSGFSISTFGVHWIRQHPGKGLEWIGVIWRRGGTDYNAAFMSRVTISKDTSKNQVSLKLSSVTAADTAVYYCARDGGFDYWGQGTTVTVSS VL: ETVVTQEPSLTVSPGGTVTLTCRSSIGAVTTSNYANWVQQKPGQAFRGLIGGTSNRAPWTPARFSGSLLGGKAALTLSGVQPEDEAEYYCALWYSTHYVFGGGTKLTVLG	0.0176
chimeric antibody Ch95 (antibody, human IgG1, kappa, V domains shown) VH: EVLLQQSGPVLVKPGPSVKISCKASGFTFTNYDIHWVKQSHGKSLEWIGLVYPYNGGTAYNQKFKDKATLTFDTSSSTAYMELNSLTSEDSAVYYCARWGLIPGTTSYFDVWGTGTTVTVSS VL: QIVLSQSPPILSASPGEKVTMTCRASSSVSYIHWYQQKPRSSPKPWIYATSNLASGVPARFSGSGSGTSYSLTISRVEAEDAATYYCQQWNSNPWTFGGGTRLEIKR	0.0302

Please look at the following binder next.
Kindly note the recorded koff for Hu147-22wk (antibody, human IgG1, kappa, V domains shown) VH: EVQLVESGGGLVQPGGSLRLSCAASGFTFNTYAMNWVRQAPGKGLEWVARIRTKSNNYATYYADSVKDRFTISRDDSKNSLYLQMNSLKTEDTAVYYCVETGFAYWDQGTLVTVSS VL: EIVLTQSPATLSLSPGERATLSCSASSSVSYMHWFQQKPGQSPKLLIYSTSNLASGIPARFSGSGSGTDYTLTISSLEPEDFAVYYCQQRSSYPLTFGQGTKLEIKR , which is 0.0142

FYI, the data here is from patent US20220324953A1.
